- Method notes: Solubility was determined
Give solubility for every item shown.

Observe how each entry below is paired with its result.
| Structure smiles string | Result |
| --- | --- |
| Cc1cc(COc2ccc(NC(=O)[C@H]3CN(CC4CC4)CC[C@@H]3C(=O)NO)cc2)c2ccccc2n1 | > 10000 µg/mL |
| Cc1cc(COc2ccc(NC(=O)[C@H]3CCNC[C@@H]3C(=O)NO)cc2)c2ccccc2n1 | > 10000 µg/mL |
| Cc1cc(COc2ccc(NC(=O)[C@H]3CCN(C(C)C)C[C@@H]3C(=O)NO)cc2)c2ccccc2n1 | > 10000 µg/mL |

Next compound, please.
Query: Which solubility reading was recorded for the compound Cc1cc(COc2ccc(NC(=O)[C@H]3CCN(C(=O)C(C)C)C[C@@H]3C(=O)NO)cc2)c2ccccc2n1 ?
Response: 30 µg/mL

----------
- Species: Homo sapiens
- Method notes: In vitro inhibition of TNF-alpha production was determined by using LPS-stimulated human whole blood assay (WBA)
- Format: functional
pIC50: −log10 of the molar value.
Parameter threshold = 6. Response is T when pIC50 meets or exceeds it, else F.

Query: Reported pIC50 at or above 6? Cc1cc(COc2ccc(NC(=O)[C@H]3CCNC[C@@H]3C(=O)NO)cc2)c2ccccc2n1
Response: F

----------
A set of compounds tested on Interstitial collagenase (Homo sapiens), with measured Ki:

Observe how each entry below is paired with its result.
| Structure smiles string | Ki |
| --- | --- |
| Cc1cc(COc2ccc(NC(=O)[C@H]3CNCC[C@@H]3C(=O)NO)cc2)c2ccccc2n1 | > 4.95 µM |
| Cc1cc(OCc2ccc(NC(=O)[C@H]3CCN(C(=O)c4ccco4)C[C@@H]3C(=O)NO)cc2)c2ccccc2n1 | > 4.95 µM |
| Cc1cc(COc2ccc(NC(=O)[C@H]3CCN(C(=O)OCc4nccs4)C[C@@H]3C(=O)NO)cc2)c2ccccc2n1 | > 4.95 µM |
| Cc1cc(COc2ccc(NC(=O)[C@H]3CCN(C(=O)C4CC4)C[C@@H]3C(=O)NO)cc2)c2ccccc2n1 | > 4.95 µM |
| Cc1cc(COc2ccc(NC(=O)[C@H]3CCN(C(=O)OC4CC4)C[C@@H]3C(=O)NO)cc2)c2ccccc2n1 | > 4.95 µM |

I need Ki for every entry listed below, if you could help.
1. Cc1cc(COc2ccc(NC(=O)[C@H]3CCN(S(=O)(=O)c4cn(C)cn4)C[C@@H]3C(=O)NO)cc2)c2ccccc2n1
2. Cc1cc(COc2ccc(NC(=O)[C@H]3CCN(C(=O)C(C)C)C[C@@H]3C(=O)NO)cc2)c2ccccc2n1
3. Cc1cc(COc2ccc(NC(=O)[C@@H]3[C@@H](C(=O)NO)CCCN3C)cc2)c2ccccc2n1

Response:
1: > 4.95 µM; 2: > 4.95 µM; 3: > 4.95 µM

I need Ki for every entry listed below, if you could help.
1. Cc1cc(COc2ccc(NC(=O)[C@H]3CCN(C(=O)c4ccco4)C[C@@H]3C(=O)NO)cc2)c2ccccc2n1
2. CCCC(=O)N1CC[C@H](C(=O)Nc2ccc(OCc3cc(C)nc4ccccc34)cc2)[C@@H](C(=O)NO)C1
3. Cc1cc(COc2ccc(NC(=O)[C@H]3CN(C(=O)c4ccco4)CC[C@@H]3C(=O)NO)cc2)c2ccccc2n1
4. Cc1cc(COc2ccc(NC(=O)[C@H]3CN(C)CC[C@@H]3C(=O)NO)cc2)c2ccccc2n1

Response:
> 4.95 µM
> 4.95 µM
> 4.95 µM
> 4.95 µM

----------
Give solubility for every item shown.
- Method notes: Solubility was determined

I need solubility for every entry listed below, if you could help.
1. Cc1cc(COc2ccc(NC(=O)[C@H]3CNCC[C@@H]3C(=O)NO)cc2)c2ccccc2n1
2. Cc1cc(COc2ccc(NC(=O)[C@H]3CCN(C(=O)C4CC4)C[C@@H]3C(=O)NO)cc2)c2ccccc2n1

Response:
["> 10000 µg/mL", "50 µg/mL"]

----------
Give IC50 for every item shown.
- Organism: Homo sapiens
- Method notes: In vitro inhibition of TNF-alpha production was determined by using LPS-stimulated human whole blood assay (WBA)
- Type: functional
One number for each entry, in nM.

Observe how each entry below is paired with its result.
| Structure smiles string | Measured metric | Result number |
| --- | --- | --- |
| CCCC(=O)N1CC[C@H](C(=O)Nc2ccc(OCc3cc(C)nc4ccccc34)cc2)[C@@H](C(=O)NO)C1 | IC50 | 330 |
| Cc1cc(COc2ccc(NC(=O)[C@H]3CN(C)CC[C@@H]3C(=O)NO)cc2)c2ccccc2n1 | IC50 | 100 |
| Cc1cc(COc2ccc(NC(=O)[C@@H]3[C@@H](C(=O)NO)CCCN3Cc3nccs3)cc2)c2ccccc2n1 | IC50 | 1400 |

Next molecule, please.
Query: Which IC50 reading was recorded for the molecule CCN1CCC[C@H](C(=O)NO)[C@H]1C(=O)Nc1ccc(OCc2cc(C)nc3ccccc23)cc1 ?
Response: 100

----------
- Organism: Homo sapiens
- Method notes: In vitro inhibition of TNF-alpha production was determined by using LPS-stimulated human whole blood assay (WBA)
- Format: functional
Give IC50 for every item shown.
Give bare numbers, in nM.

Observe how each entry below is paired with its result.
| Structure smiles string | Result number |
| --- | --- |
| Cc1cc(COc2ccc(NC(=O)[C@H]3CCN(C(=O)NC(C)(C)C)C[C@@H]3C(=O)NO)cc2)c2ccccc2n1 | 560 |
| O=C(NO)[C@H]1CN(C(=O)C2CC2)CC[C@@H]1C(=O)Nc1ccc(OCc2ccnc3ccccc23)cc1 | 1300 |
| Cc1cc(COc2ccc(NC(=O)[C@H]3CCN(C4CCC4)C[C@@H]3C(=O)NO)cc2)c2ccccc2n1 | 1100 |
| Cc1cc(COc2ccc(NC(=O)[C@H]3CCN(C(=O)OC4CC4)C[C@@H]3C(=O)NO)cc2)c2ccccc2n1 | 700 |
| COC(=O)N1CC[C@H](C(=O)Nc2ccc(OCc3cc(C)nc4ccccc34)cc2)[C@@H](C(=O)NO)C1 | 570 |

I need IC50 for every entry listed below, if you could help.
1. Cc1cc(COc2ccc(NC(=O)[C@H]3CCN(C(=O)c4ccco4)C[C@@H]3C(=O)NO)cc2)c2ccccc2n1
2. Cc1cc(COc2ccc(NC(=O)[C@H]3CCN(C(=O)OCc4nccs4)C[C@@H]3C(=O)NO)cc2)c2ccccc2n1
3. Cc1cc(COc2ccc(NC(=O)[C@H]3CCN(C(=O)OCc4cscn4)C[C@@H]3C(=O)NO)cc2)c2ccccc2n1

Response:
[170, 450, 530]

----------
A set of compounds tested on Matrix metalloproteinase-9 (Homo sapiens, UniProt P14780), with measured pKi:
Answers are plain numbers, as −log10 of the molar value.

Observe how each entry below is paired with its result.
| Structure smiles string | Assay system | pKi |
| --- | --- | --- |
| Cc1cc(COc2ccc(NC(=O)[C@H]3CCN(S(=O)(=O)c4cn(C)cn4)C[C@@H]3C(=O)NO)cc2)c2ccccc2n1 | Matrix metalloproteinase-9 (Homo sapiens, UniProt P14780) | 6.44 |
| Cc1cc(COc2ccc(NC(=O)[C@H]3CCN(C(=O)OCc4nccs4)C[C@@H]3C(=O)NO)cc2)c2ccccc2n1 | Matrix metalloproteinase-9 (Homo sapiens, UniProt P14780) | 6.11 |

I need pKi for every entry listed below, if you could help.
1. Cc1cc(COc2ccc(NC(=O)[C@H]3CCN(S(C)(=O)=O)C[C@@H]3C(=O)NO)cc2)c2ccccc2n1
2. COC(=O)N1CC[C@H](C(=O)Nc2ccc(OCc3cc(C)nc4ccccc34)cc2)[C@@H](C(=O)NO)C1
3. Cc1cc(COc2ccc(NC(=O)[C@H]3CCN(C(=O)OC4CC4)C[C@@H]3C(=O)NO)cc2)c2ccccc2n1

Response:
[6.51, 6.12, 6.68]

----------
- Assay system: 72 kDa type IV collagenase (Homo sapiens)
- Sequence (P08253 whole entry): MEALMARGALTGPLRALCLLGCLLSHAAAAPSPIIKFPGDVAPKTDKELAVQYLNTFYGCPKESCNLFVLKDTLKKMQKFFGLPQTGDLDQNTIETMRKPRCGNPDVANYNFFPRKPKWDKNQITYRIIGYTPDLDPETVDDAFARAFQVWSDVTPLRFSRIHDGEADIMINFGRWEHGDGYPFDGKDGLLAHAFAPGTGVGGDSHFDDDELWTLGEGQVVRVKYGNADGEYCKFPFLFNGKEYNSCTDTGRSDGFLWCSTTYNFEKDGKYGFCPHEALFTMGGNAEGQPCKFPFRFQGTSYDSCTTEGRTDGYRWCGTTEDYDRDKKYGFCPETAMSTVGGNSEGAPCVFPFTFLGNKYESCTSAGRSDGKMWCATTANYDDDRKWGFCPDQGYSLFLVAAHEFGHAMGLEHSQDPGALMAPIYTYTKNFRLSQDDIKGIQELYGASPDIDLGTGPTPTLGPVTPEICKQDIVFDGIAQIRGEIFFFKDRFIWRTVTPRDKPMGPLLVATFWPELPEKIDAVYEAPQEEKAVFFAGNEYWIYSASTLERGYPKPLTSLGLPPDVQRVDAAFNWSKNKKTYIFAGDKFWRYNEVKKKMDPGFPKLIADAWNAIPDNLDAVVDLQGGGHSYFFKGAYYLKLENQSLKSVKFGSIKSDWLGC
Give Ki for every item shown.

Observe how each entry below is paired with its result.
| Structure smiles string | Ki |
| --- | --- |
| Cc1cc(COc2ccc(NC(=O)[C@H]3CCN(C(=O)OCc4cscn4)C[C@@H]3C(=O)NO)cc2)c2ccccc2n1 | 476 nM |
| O=C(NO)[C@H]1CN(C(=O)C2CC2)CC[C@@H]1C(=O)Nc1ccc(COc2ccnc3ccccc23)cc1 | > 3330 nM |
| Cc1cc(COc2ccc(NC(=O)[C@H]3CNCC[C@@H]3C(=O)NO)cc2)c2ccccc2n1 | > 3330 nM |
| Cc1cc(COc2ccc(NC(=O)[C@H]3CN(Cc4nccs4)CC[C@@H]3C(=O)NO)cc2)c2ccccc2n1 | > 3330 nM |
| Cc1cc(COc2ccc(NC(=O)[C@H]3CCN(C(=O)NC(C)(C)C)C[C@@H]3C(=O)NO)cc2)c2ccccc2n1 | > 3330 nM |

I need Ki for every entry listed below, if you could help.
1. Cc1cc(COc2ccc(NC(=O)[C@H]3CCN(C(=O)OC4CC4)C[C@@H]3C(=O)NO)cc2)c2ccccc2n1
2. Cc1cc(OCc2ccc(NC(=O)[C@H]3CCN(C(=O)c4ccco4)C[C@@H]3C(=O)NO)cc2)c2ccccc2n1
3. Cc1cc(COc2ccc(NC(=O)[C@H]3CCN(C(=O)OCc4nccs4)C[C@@H]3C(=O)NO)cc2)c2ccccc2n1
4. Cc1cc(COc2ccc(NC(=O)[C@H]3CCN(C4CCC4)C[C@@H]3C(=O)NO)cc2)c2ccccc2n1
5. Cc1cc(COc2ccc(NC(=O)[C@H]3CCNC[C@@H]3C(=O)NO)cc2)c2ccccc2n1
6. CCCC(=O)N1CC[C@H](C(=O)Nc2ccc(OCc3cc(C)nc4ccccc34)cc2)[C@@H](C(=O)NO)C1
7. Cc1cc(COc2ccc(NC(=O)[C@H]3CCN(C(=O)C4CC4)C[C@@H]3C(=O)NO)cc2)c2ccccc2n1

Response:
1. 642 nM
2. > 3330 nM
3. 1540 nM
4. > 3330 nM
5. > 3330 nM
6. > 3330 nM
7. > 2450 nM
